Quick list: self-cleavage per entry.
B1: Twister Ribozyme (parent)
chain: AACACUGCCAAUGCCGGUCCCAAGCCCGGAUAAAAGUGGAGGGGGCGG

# Variants of: B1
# protocol notes: self-cleavage, relative activity (ratio to wild type); higher = more cleavage; co-transcriptional
Kindly provide the number alone.

The variant G45C G47A showed self-cleavage equal to 0.305

The variant U12C G17A showed self-cleavage equal to 0.532

The variant C8G G39A showed self-cleavage equal to 0.0973

The variant U12C G45C showed self-cleavage equal to 0.584

The variant C8G U37A showed self-cleavage equal to 0.115

The variant A2C A11U showed self-cleavage equal to 0.108

The variant U12A A40G showed self-cleavage equal to 0.136

The variant C5A U31C showed self-cleavage equal to 0.653
